Biological target: catalytic domain (JH1, amino acids 808-1132) of human JAK2 (Homo sapiens (Human))
Sequence (O60674 808-1132): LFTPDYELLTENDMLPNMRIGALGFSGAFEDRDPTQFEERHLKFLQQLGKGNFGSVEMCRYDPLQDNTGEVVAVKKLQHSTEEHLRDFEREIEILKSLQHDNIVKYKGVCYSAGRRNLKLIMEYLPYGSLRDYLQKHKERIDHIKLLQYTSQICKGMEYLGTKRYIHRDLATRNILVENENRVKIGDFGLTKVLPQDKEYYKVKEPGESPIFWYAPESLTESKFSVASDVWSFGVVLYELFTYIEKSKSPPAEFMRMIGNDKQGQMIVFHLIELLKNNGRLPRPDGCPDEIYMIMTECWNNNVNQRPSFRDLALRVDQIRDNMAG
Assay: JAK2 HTRF Enzyme Activity Assay
Settings: JAK2 0.015 nM, ATP (30 μM or 1 mM), 60 minutes at 25° C.
pIC50: −log10 of the molar value. Where a name gives a salt, the structure may show the parent alone.
Recorded measurements of pIC50, one per entry

Use the examples below as a reference point.
CC(=O)N1CCN(c2ccc(-c3c(-c4ccc(CN5CCC(S(C)(=O)=O)CC5)cc4)[nH]c4ncc5c(c34)CN(C(C)(C)C)C(=O)N5C)cc2)CC1 [Example 18, trifluoroacetic acid salt] = ≥ 7.00
CN1C(=O)N(C(C)(C)C)Cc2c1cnc1[nH]c(-c3ccc(CN4CCC(S(C)(=O)=O)CC4)cc3)c(-c3ccc(C(=O)NCC4(C#N)CC4)cc3)c21 = ≥ 7.00

input: For the compound CN1C(=O)N(c2ccc(C(=O)O)cc2)Cc2c1cnc1[nH]c(-c3ccc(CN4CCC(S(C)(=O)=O)CC4)cc3)c(C3CC3)c21 [Example 23, trifluoroacetic acid salt] , give its measured pIC50 value.
output: < 5.60

input: For the compound CNS(=O)(=O)c1ccc(-c2c(-c3ccc(CN4CCC(S(C)(=O)=O)CC4)cc3)[nH]c3ncc4c(c23)CN(C(C)(C)C)C(=O)N4C)cc1 [Example 17, trifluoroacetic acid salt] , give its measured pIC50 value.
output: ≥ 7.00

input: For the compound COC(=O)c1c(-c2ccc(CN3CCC(S(C)(=O)=O)CC3)cc2)[nH]c2ncc3c(c12)CN(c1ccc(C(=O)O)cc1)C(=O)N3C [Example 15, Trifluoroacetic Acid Salt] , give its measured pIC50 value.
output: < 5.60

====

Recorded measurements of IC50, one per entry
Molecular target: pseudo-kinase domain (JH2, amino-acids 536-812) of human Wild Type JAK2 (Homo sapiens (Human), UniProt O60674, F794H/W659A/W777A)
Sequence (O60674 536-812 W659A/W777A/F794H): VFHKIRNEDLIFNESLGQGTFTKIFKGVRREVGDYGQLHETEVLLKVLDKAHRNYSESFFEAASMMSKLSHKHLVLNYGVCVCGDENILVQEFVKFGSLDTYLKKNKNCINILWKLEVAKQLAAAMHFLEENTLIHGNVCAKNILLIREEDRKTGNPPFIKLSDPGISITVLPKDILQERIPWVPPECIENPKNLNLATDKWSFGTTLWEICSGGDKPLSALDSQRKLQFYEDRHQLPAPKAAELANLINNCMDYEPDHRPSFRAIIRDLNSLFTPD
Experiment: JAK2 LanthaScreen JH2-WT Binding Assay
Settings: JAK2 JH2-WT 0.145 nM, 50 nM fluorescent tracer, 1 hour at 25° C.; read-out: JH2 BIND WT IC50
Counter-ions that a name gives are not always drawn.

Use the examples below as a reference point.
CN1C(=O)N(c2ccc(C(=O)O)cc2)Cc2c1cnc1[nH]c(-c3ccc(CN4CCC(S(C)(=O)=O)CC4)cc3)c(C3CC3)c21 [Example 23, trifluoroacetic acid salt] = ≤ 100 nM
COc1ccc(-c2c(C3CC3)[nH]c3ncc4c(c23)CN(c2ccc(C(=O)O)cc2)C(=O)N4C)cc1 [Example 26] = 100 to 500 nM
CC1c2c(cnc3[nH]c(-c4ccc(CN5CCC(S(C)(=O)=O)CC5)cc4)cc23)N(C)C(=O)N1c1ccc(C(=O)O)cc1 (racemic) [Example 10] = ≤ 100 nM
CC(=O)N1CC=C(c2c(-c3ccc(CN4CCC(S(C)(=O)=O)CC4)cc3)[nH]c3ncc4c(c23)CN(c2ccc(C(=O)O)cc2)C(=O)N4C)CC1 [Example 20, Trifluoroacetic Acid Salt] = ≤ 100 nM

input: For the compound CN1C(=O)N(c2ccc(C(=O)O)cc2)Cc2c1cnc1[nH]c(-c3ccc(CN4CCC(S(C)(=O)=O)CC4)cc3)c(C#N)c21 [Example 24, Trifluoroacetic Acid Salt] , give its measured IC50 value.
output: 100 to 500 nM

input: For the compound CN1C(=O)N(c2ccc(C(=O)O)cc2)Cc2c1cnc1[nH]c(-c3ccc(CN4CCC(S(C)(=O)=O)CC4)cc3)cc21 [Example 3] , give its measured IC50 value.
output: ≤ 100 nM

input: For the compound CS(=O)(=O)C1CCN(Cc2ccc(-c3cc4c5c(cnc4[nH]3)NC(=O)N(C3CCCCC3)C5)cc2)CC1 [Example 5] , give its measured IC50 value.
output: 100 to 500 nM

input: For the compound CC(C(N)=O)n1cc(-c2ccc(-c3c(-c4ccc(CN5CCC(S(C)(=O)=O)CC5)cc4)[nH]c4ncc5c(c34)CN(C(C)(C)C)C(=O)N5C)cc2)cn1 (racemic) [Example 19, Trifluoroacetic Acid Salt] , give its measured IC50 value.
output: ≤ 100 nM

input: For the compound CNS(=O)(=O)c1ccc(-c2c(-c3ccc(CN4CCC(S(C)(=O)=O)CC4)cc3)[nH]c3ncc4c(c23)CN(C(C)(C)C)C(=O)N4C)cc1 [Example 17, trifluoroacetic acid salt] , give its measured IC50 value.
output: ≤ 100 nM

input: For the compound CN1C(=O)N(c2ccc(C(=O)O)cc2)Cc2c1cnc1[nH]c(-c3ccc(CN4CCC(S(C)(=O)=O)CC4)cc3)c(-c3ccc(C4(N)CC4)cc3)c21 [Example 21] , give its measured IC50 value.
output: ≤ 100 nM

input: For the compound COc1ccc(-c2c(-c3ccc(CN4CCC(S(C)(=O)=O)CC4)cc3)[nH]c3ncc4c(c23)CN(c2ccc(C(=O)Nc3cccnc3)cc2)C(=O)N4C)cc1 [Example 11, Bistrifluoroacetic Acid Salt] , give its measured IC50 value.
output: ≤ 100 nM

input: For the compound CN1C(=O)N(c2ccccc2)Cc2c1cnc1[nH]c(-c3ccc(CN4CCC(S(C)(=O)=O)CC4)cc3)cc21 [Example 2] , give its measured IC50 value.
output: 100 to 500 nM

input: For the compound CC(=O)N1CCN(c2ccc(-c3c(-c4ccc(CN5CCC(S(C)(=O)=O)CC5)cc4)[nH]c4ncc5c(c34)CN(C(C)(C)C)C(=O)N5C)cc2)CC1 [Example 18, trifluoroacetic acid salt] , give its measured IC50 value.
output: ≤ 100 nM

input: For the compound CNC(=O)c1ccc(N2Cc3c(cnc4[nH]c(-c5ccc(CN6CCC(S(C)(=O)=O)CC6)cc5)c(-c5ccc(OC)cc5)c34)N(C)C2=O)cc1 [Example 12] , give its measured IC50 value.
output: ≤ 100 nM

input: For the compound COC(=O)c1c(-c2ccc(CN3CCC(S(C)(=O)=O)CC3)cc2)[nH]c2ncc3c(c12)CN(c1ccc(C(=O)O)cc1)C(=O)N3C [Example 15, Trifluoroacetic Acid Salt] , give its measured IC50 value.
output: 100 to 500 nM

input: For the compound CN1C(=O)N(c2ccc(C(=O)O)cc2)Cc2c1cnc1[nH]c(-c3ccc(CN4CCC(S(C)(=O)=O)CC4)cc3)c(I)c21 [Example 25, Trifluoroacetic Acid Salt] , give its measured IC50 value.
output: ≤ 100 nM

input: For the compound CN1C(=O)N(c2ccc(NC(=O)CC#N)cc2)Cc2c1cnc1[nH]c(-c3ccc(CN4CCC(S(C)(=O)=O)CC4)cc3)cc21 [Example 9] , give its measured IC50 value.
output: 100 to 500 nM

input: For the compound CC(=O)NCc1ccc(-c2c(-c3ccc(CN4CCC(S(C)(=O)=O)CC4)cc3)[nH]c3ncc4c(c23)CN(C(C)(C)C)C(=O)N4C)cc1 [Example 16] , give its measured IC50 value.
output: ≤ 100 nM

input: For the compound CN1C(=O)N(C(C)(C)C)Cc2c1cnc1[nH]c(-c3ccc(CN4CCC(S(C)(=O)=O)CC4)cc3)c(-c3ccc(C(=O)NCC4(C#N)CC4)cc3)c21 [Example 14, Trifluoroacetic Acid] , give its measured IC50 value.
output: ≤ 100 nM

input: For the compound CN1C(=O)N(c2ccc(C(=O)O)cc2)Cc2c1cnc1[nH]c(-c3ccc(CN4CCC(S(C)(=O)=O)CC4)cc3)c(-c3ccn(C)c3)c21 [Example 22, trifluoroacetic acid salt] , give its measured IC50 value.
output: ≤ 100 nM
